assayProcedure: observed amide hydrogen exchange rate constant kobs (stretched exponential fit, FD-normalized) (s^-1); higher = faster H/D exchange (less protection)
runParameters: pH 3 (pH read); temperature: 20 °C; D2O: 88%
List of observed amide hydrogen exchange rate constant kobs values.
// no unit string in output, number only

Reference set, count: 4
# substance, measValue
data = [
    ("VLTVINQTQK", 0.00141),
    ("HLQLAIRNDEELNK", 0.00184),
    ("ELGIWEPLAVK", 0.000742),
    ("RHLTGEFEK", 0.00392),
]

IN: I would be grateful if you could share the reported observed amide hydrogen exchange rate constant kobs for `HWPFMVVNDAGRPK` .
OUT: 0.00131

IN: I would be grateful if you could share the reported observed amide hydrogen exchange rate constant kobs for `NIIHGSDSVESAEK` .
OUT: 0.00215

====

assayProcedure: observed amide hydrogen exchange rate constant kobs (stretched exponential fit, FD-normalized) (s^-1); higher = faster H/D exchange (less protection)
runParameters: pH 3 (pH read); temperature: 20 °C; D2O: 88%
Threshold rule: observed amide hydrogen exchange rate constant kobs greater than or equal to 0.001 is condition met; below that, condition not met.

The examples below pair each entry with its known result.
# substance, cat
measured = [
    ("SFFTDDDK", "condition met"),
    ("IACLDFSLQK", "condition not met"),
    ("HYGGLTGLNK", "condition met"),
]

IN: State whether the measured observed amide hydrogen exchange rate constant kobs reaches 0.001, counting equality as reaching it, for `LAPITSDPTEATAVGAVEASFK`
OUT: condition not met

IN: State whether the measured observed amide hydrogen exchange rate constant kobs reaches 0.001, counting equality as reaching it, for `IITLTGPTNAIFK`
OUT: condition not met

IN: State whether the measured observed amide hydrogen exchange rate constant kobs reaches 0.001, counting equality as reaching it, for `LVLVGDGGTGK`
OUT: condition not met

====

assayProcedure: observed amide hydrogen exchange rate constant kobs (stretched exponential fit, FD-normalized) (s^-1); higher = faster H/D exchange (less protection)
runParameters: pH 3 (pH read); temperature: 20 °C; D2O: 88%
Threshold rule: observed amide hydrogen exchange rate constant kobs greater than or equal to 0.001 is fulfilled; below that, not fulfilled.

IN: State whether the measured observed amide hydrogen exchange rate constant kobs reaches 0.001, counting equality as reaching it, for `EQFLDGDGWTSR`
OUT: fulfilled

IN: State whether the measured observed amide hydrogen exchange rate constant kobs reaches 0.001, counting equality as reaching it, for `DEFEGLFK`
OUT: fulfilled

IN: State whether the measured observed amide hydrogen exchange rate constant kobs reaches 0.001, counting equality as reaching it, for `NVTLPAVFK`
OUT: not fulfilled

====

assayProcedure: observed amide hydrogen exchange rate constant kobs (stretched exponential fit, FD-normalized) (s^-1); higher = faster H/D exchange (less protection)
runParameters: pH 3 (pH read); temperature: 20 °C; D2O: 88%
Threshold rule: observed amide hydrogen exchange rate constant kobs greater than or equal to 0.001 is Criterion met; below that, Criterion not met.

The examples below pair each entry with its known result.
# substance, cat
data = [
    ("VTVITK", "Criterion not met"),
    ("ATISNDGATILK", "Criterion met"),
    ("DSPSVWAAVPGK", "Criterion not met"),
]

IN: State whether the measured observed amide hydrogen exchange rate constant kobs reaches 0.001, counting equality as reaching it, for `APIIAVTR`
OUT: Criterion not met
